- System: human CTLA-4 (human) (UniProt P16410)
- Sequence (P16410 36-223): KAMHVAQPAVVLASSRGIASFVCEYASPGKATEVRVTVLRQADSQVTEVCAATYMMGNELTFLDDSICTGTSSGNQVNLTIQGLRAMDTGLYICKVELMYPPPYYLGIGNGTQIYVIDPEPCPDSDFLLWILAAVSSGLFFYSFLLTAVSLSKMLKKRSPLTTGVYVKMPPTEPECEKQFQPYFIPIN
- Assay Remarks: flow cytometry, CHO cells expressing huCTLA4
Property Name: MFI at 33.3 nM (MFI)

Binder: variant CD80 IgV-Fc E7D/E35D/M47I/L97Q (Fc fusion) VIHVTKDVKEVATLSCGHNVSVEELAQTRIYWQKDKKMVLTMMSGDINIWPEYKNRTIFDITNNLSIVILALRPSDEGTYECVVLKYEKDAFKREHQAEVTLSVKAD
Recorded Number: 271000
--
Binder: variant CD80 IgV-Fc V22A/E35D/M47I/Y87N (Fc fusion) VIHVTKEVKEVATLSCGHNVSAEELAQTRIYWQKDKKMVLTMMSGDINIWPEYKNRTIFDITNNLSIVILALRPSDEGTYECVVLKNEKDAFKREHLAEVTLSVKAD
Recorded Number: 246000
